The origin of these recorded values is patent US20230408517A1.

# ASSAY SYSTEM: recombinant his-tagged homotrimeric SARS-CoV-2 spike protein (SARS-CoV-2, UniProt P0DTC2 16-1211)
# ASSAY TEXT: flow cytometry, blocking of binding to hACE-2 cells
Listed binders paired with reported percent blocking
Give a bare numeral; the unit % is implied.

In the examples that follow, each entry is paired with its recorded percent blocking.
binder="1035755 (antibody, V domains shown) VH: EVQLQQSGAELVRPGALVKLSCKASGFNIKDYYMHWVKQRPEQGLEWIGWIDPENGNSIYDPKFQGKASITADTSSNTAYLQLSSLTSEDTAVYYCATPSATSYFDYWGQGTTLTVSS VL: QIVLTQSPAIMSASPGEKVTISCSASSSVSYMYWYQQKPGSSPKPWIYRTSNLASGVPARFSGSGSGTSYSLTISSMEAEDAATYYCQQYHSYPYMYTFGGGTKLEIK" result_number=84.6
binder="1035709 (antibody, V domains shown) VH: EVQLQQSGPELVKPGASVKISCKTSGYTFTEYTMHWVKQSHGKSLEWIGGINPNIVDTGYNQKFKGKATLTVDKSSSTAYMELRSLTSEDSAVYYCARDGYPLYYAMDYWGQGTSVTVSS VL: DIQMTQSPSSLSASLGERVSLTCRASQEISGYLSWLQQKPDGTIKRLIYAASTLDSGVPKRFSGSRSGSDYSLTISSLESEDFADYYCLQYASYPWTFGGGTKLEIK" result_number=96.5

Let's switch to this binder now.
Request: Give me measured percent blocking, please, for this binder: 1035716 (antibody, V domains shown) VH: EVLLQQSGPELVKPGASVKIPCKASGYTFTDYNMDWVKQSHGKSLEWIGDINPNNGGTIYNQKFKGKATLTVDKSSSTAYMELRSLTSEDTAVYYCAREGYGNYFDYWGQGTTLTVSS VL: DILLTQSPAILSVSPGERVSFSCRASQSIGTSIHWYQQRTNGSPRLLIKYASESISGIPSRFSGSGSGTDYTLSINSVESEDIADYYCQQSYSWPTTFGAGTKLELK
Result: 96.5
